// provenance: paper PMC8415707

- System: A549
- TEST METHOD NOTES: Cytotoxicity by MTT
- Type: cell-based
- APPLIED CONDITIONS: A549, 24 h, 2.5-40 μM tested, n = 3; read-out: IC50 (proliferation, MTT)
No end group written: not given here.
READOUT LABEL: pIC50
API: returns pIC50 as number; meaning -log10 of concentration in mol/L.

Exam item: Item LKTKALNKLKQKLQAVGNLIGSVIKG [FM-CATH] has what recorded pIC50?
Marked response: 4.93
